Where these numbers come from: patent US7851180B2

System: W3-BTJA strain
Assay: O-succinylhomoserine production of feed back resistant metA in W3-BTJA strain, Erlenmeyer flask culture
Type: cell-based, E. coli
Details: metA plasmid in W3-BTJA strain; flask culture 64 hours, HPLC; wild type = 100%
readout_name: O-succinylhomoserine production (%)
Use % as the unit, but write only the number.

Request: Requested read-out: O-succinylhomoserine production (%). Entry: #37: feed-back resistant metA 37 gene product, amino acid sequence SEQ. ID. NO: 20 (protein, listed as Escherichia coli) MPIRVPDELPAVNFLREENVFVMTTSRAPGQEIRPLKVLILNLMPKKIETENQFLRLLSNSPLQVDIQLLRIDSRESRNTPAEHLNNFYCNFEDIQDQNFDGLIVTGAPLGLVGFNDVAYWPQIKQVLEWSKDHVTSTLSVCWAVQAALNILYGIPKQTRTEKLSGVYEHHILHPHALLTRGFDDSFLAPHSRYADFPAALIRDYTDLEILAETEEGDAYLFASKDKRIAFVTGHPEYDAQTLAQEFFRDVEAGLDPDVPYNYFPHNDPQNTPRASWRSHGNLLFTNWLNYYVYQITPYDLRHMNPTLD
Response: 227
